Provenance of the data: paper PMC13205134

Assay read-out Kd; system under study: Hsp90α (Homo sapiens, UniProt P07900).
Give the value in µM but do not write µM after it.

Asked: Notebook entry, Hsp90α (Homo sapiens, UniProt P07900) assay: Kd of `CCCSc1ccccc1Cc1cnnn1CCc1c(Cl)c(O)cc(O)c1C(=O)OC` = ?
Given back: 4.39

Asked: So what Kd did `CCCc1ccccc1Cc1cnnn1CCc1c(Cl)c(O)cc(O)c1C(=O)OC` get with Hsp90α (Homo sapiens, UniProt P07900)?
Given back: 9.17

---

# Tested on: Grp94
# assayRemarks: Competitive binding fluorescence polarization (FP) assay, Grp94
# conditions: selectivity over Hsp90α; n.s. = non-selective
Please mark yes if the recorded Fold selective for Grp94 is equal to or greater than 5 fold, and no if it falls below.

Take a look at these entries with their results.
[[record]]
compound = "CCOc1cc(Cl)ccc1Cc1cnnn1CCc1c(Cl)c(O)cc(O)c1C(=O)OC [Compound 41]"
labelvalue = "yes"

[[record]]
compound = "COC(=O)c1c(O)cc(O)c(Cl)c1CCn1nncc1Cc1ccc(F)cc1 [Compound 31]"
labelvalue = "no"

[[record]]
compound = "CCCOc1ccccc1Cc1cnnn1CCc1c(Cl)c(O)cc(O)c1C(=O)OC [Compound 42]"
labelvalue = "yes"


Asked: For this compound, is measured Fold selective for Grp94 5 fold or higher? COC(=O)c1c(O)cc(O)c(Cl)c1CCn1nncc1Cc1ccccc1Cl [Compound 39]
Given back: no

Asked: Is the recorded value of Fold selective for Grp94 equal to or greater than 5 fold for this compound? COC(=O)c1c(O)cc(O)c(Cl)c1CCn1nncc1Cc1ccc(C)cc1 [Compound 34]
Given back: yes

---

Entries below carry reported pKd on Hsp90α (Homo sapiens).
// scale note: pKd = -log10(conc_M); give the bare number

The cases that follow already have their pKd on record.
[[record]]
chemicalstring = "COC(=O)c1c(O)cc(O)c(Cl)c1CCn1nncc1Cc1ccccc1Cl"
assaymetric = "pKd"
recordedresult = 5.08

[[record]]
chemicalstring = "COC(=O)c1c(O)cc(O)c(Cl)c1CCn1cc(Cc2ccccc2)nn1"
assaymetric = "pKd"
recordedresult = 5.17

[[record]]
chemicalstring = "COC(=O)c1c(O)cc(O)c(Cl)c1CCn1nncc1Cc1ccc(F)cc1"
assaymetric = "pKd"
recordedresult = 5.33

[[record]]
chemicalstring = "CCOc1cc(Cl)ccc1Cc1cnnn1CCc1c(Cl)c(O)cc(O)c1C(=O)OC"
assaymetric = "pKd"
recordedresult = 5.05


Asked: Recall the recorded pKd for `COC(=O)c1c(O)cc(O)c(Cl)c1CCn1nncc1Cc1ccccc1` with Hsp90α (Homo sapiens) and state it.
Given back: 5.28

Asked: Lab request: please report pKd under test system Hsp90α (Homo sapiens) for `COC(=O)c1c(O)cc(O)c(Cl)c1CCn1nncc1Cc1ccc(Br)cc1`
Given back: 5.47

Asked: // lookup pKd | system=Hsp90α (Homo sapiens) | key= `COC(=O)c1c(O)cc(O)c(Cl)c1CCn1nncc1Cc1ccccc1CCC(F)(F)F`
Given back: 5.36

Asked: Recall the recorded pKd for `COC(=O)c1c(O)cc(O)c(Cl)c1CCn1nncc1Cc1ccccc1CC(C)C` with Hsp90α (Homo sapiens) and state it.
Given back: 6.04

---

# Tested on: Grp94
# assayRemarks: Competitive binding fluorescence polarization (FP) assay, Grp94
# conditions: selectivity over Hsp90α; n.s. = non-selective
# Protocol: The Fluorescence Polarization Assay (FP) was performed in 96-well flat-bottom plates (Santa Cruz Biotechnology) with a final volume of 100 μL per well. […] Each well contained 10 nM of Hsp90α or Grp94 (Enzo Biochem Inc.) and 6 nM of FITC-GDA (fluorescent tracer, stock in DMSO). Compounds were tested in triplicate at final concentrations of 100 μM, 10 μM, 1 μM, 0.1 μM and 0.01 μM with each final concentration containing 1 % DMSO. […]
assayMetric: Fold selective for Grp94

[[record]]
molecule = "COC(=O)c1c(O)cc(O)c(Cl)c1CCn1cc(Cc2ccccc2)nn1 [Compound 16]"
recordedresult = "n.s."

[[record]]
molecule = "CCc1ccc(Cc2cnnn2CCc2c(Cl)c(O)cc(O)c2C(=O)OC)cc1 [Compound 35]"
recordedresult = "n.s."

[[record]]
molecule = "COC(=O)c1c(O)cc(O)c(Cl)c1CCn1nncc1Cc1ccc(Br)cc1 [Compound 33]"
recordedresult = "5 fold"

[[record]]
molecule = "COC(=O)c1c(O)cc(O)c(Cl)c1CCc1cnnn1Cc1ccccc1 [Compound 10]"
recordedresult = "n.s."

